assay: Viability qHTS for spleen associated tyrosine kinase inhibitor (SYKi) naive MV4-11 cells (AID 1963823); details: MV4-11 AML viability, CellTiter-Glo luminescence, 72 h; series mostly up to 45 µM; also: nearly all actives have a fitted effect of over 40% in size
Results filed as inconclusive are left out. Active and inactive are the calls of the source. Calls follow the shape of the dose curve; as a rule, active = well fitted cell-killing curve with a large enough effect; inconclusive = small, poorly fitted or top-dose-only effect, or effect the other way; inactive = no such curve, though single readings can be large or run the other way.
In this exercise, the only acceptable responses are T = active, F = inactive

Use the examples below as a reference point.
>>> label("C=C1c2cccc(O)c2C(O)=C2C(=O)[C@]3(O)C(O)=C(C(N)=O)C(=O)[C@@H](N(C)C)[C@@H]3[C@@H](O)[C@H]12")
"F"
>>> label("O=C(O)c1cn(C2CC2)c2cc(N3CCNCC3)c(F)cc2c1=O")
"F"
>>> label("O=C1C[C@@H](c2ccc(O)cc2)Oc2cc(O)ccc21")
"T"
>>> label("CC(=O)[C@]1(N)Cc2c(O)c3c(c(O)c2[C@@H](O[C@H]2C[C@H](O)[C@H](O)CO2)C1)C(=O)c1ccccc1C3=O")
"T"
>>> label("CN(C)CCc1c[nH]c2ccc(C[C@H]3COC(=O)N3)cc12")
"F"
>>> label("COC(=O)c1ccc(NC(C)=O)cc1OC")
"F"
>>> label("CO[C@]1(NC(=O)CSC(F)F)C(=O)N2C(C(=O)O)=C(CSc3nnnn3CCO)CO[C@H]21")
"F"
>>> label("CSCC[C@H](NC(=O)[C@H](Cc1c[nH]c2ccccc12)NC(=O)CCNC(=O)OC(C)(C)C)C(=O)N[C@@H](CC(=O)O)C(=O)N[C@@H](Cc1ccccc1)C(N)=O")
"F"
>>> label("[N-]=[N+]=N[C@]1(CO)O[C@@H](n2ccc(N)nc2=O)[C@@H](O)[C@@H]1O")
"F"
>>> label("COc1c2c(c(C)c3c1C(=O)OC3)OC1(C)CC(O)C34OC(OC)(CC(OC(C)=O)C3(C)C1C2)OC4(C)C (stereo not drawn)")
"F"

Answer briefly: the call reported for COc1ccc(C2CC(c3ccccc3)=NN2c2ccc(S(N)(=O)=O)cc2)cc1 (stereo not drawn) in this assay. T

Answer briefly: the call reported for `N#Cc1cc(NC(=O)C(=O)O)c(Cl)c(NC(=O)C(=O)O)c1` in this assay. F

Answer briefly: the call reported for `CCc1cc(Cl)c(OC)c(C(=O)NC[C@@H]2CCCN2CC)c1O` in this assay. F

* * *

Test: Cellular viability qHTS for adrenocortical cancer (ACC) cell line NCI-H295R (AID 1963990); also: nearly all actives have a fitted effect of over 60% in size; also: potency is read from the fitted curve at half-maximal effect
Details: CellTiter-Glo ATP luminescence, 48 h; series mostly up to 46.1 µM
Description: PI: Naris Nilubol, MD Surgical Oncology Program, National Cancer Institute (NCI) National Institute of Health (NIH), Bethesda, Maryland Adrenocortical cancer (ACC) is a rare malignancy with poor survival outcomes and few treatment options. Currently, mitotane is the only FDA-approved therapy for ACC. […] Through a quantitative high-throughput drug screen (qHTS), we identified auranofin (AF), a thioredoxin reductase (TXNRD) inhibitor, as a promising candidate drug. […]
Inconclusive results are not listed. The source made the active and inactive calls. Calls come from the whole dose curve; as a rule, active = well fitted cell-killing curve with a large enough effect; inconclusive = small, poorly fitted or top-dose-only effect; inactive = flat fitted curve, though single readings scatter.
Quantity measured: Potency

The cases that follow already have their Potency on record.
>>> value_measured("O=C(O)CCc1nc2ccccc2[nH]1")
"inactive"
>>> value_measured("Cn1cncc1[C@@](N)(c1ccc(Cl)cc1)c1ccc2c(c1)c(-c1cccc(Cl)c1)cc(=O)n2C")
"inactive"
>>> value_measured("CC(C)=CCNc1ncnc2c1ncn2[C@@H]1O[C@H](CO)[C@@H](O)[C@H]1O")
"7.31 µM (active)"
>>> value_measured("Cn1cc(CNCC2CCN(c3ncc(C(=O)NO)cn3)CC2)c2ccccc21")
"0.794 µM (active)"
>>> value_measured("N#C/C(=C\\c1ccc(O)c(O)c1)C(=O)NCc1ccccc1")
"inactive"

Identify measured Potency corresponding to `CCN(CC)CCc1nc(-c2ccccc2)no1` inactive

Identify measured Potency corresponding to CC(C)(C)NCC(O)COc1ccc(NC(=O)NC2CCCCC2)cc1 (stereo not drawn) inactive

Identify measured Potency corresponding to `COC(=O)/C=C/C(=O)OC` inactive

Identify measured Potency corresponding to `COc1cc2nc(-c3ccc(N4CCN(C)CC4)cc3)nc(NCCN3CCOCC3)c2cc1OC` 3.55 µM (active)

Identify measured Potency corresponding to `COc1ccc2cc1Oc1ccc(cc1)C[C@H]1c3c(cc4c(c3Oc3cc5c(cc3OC)CCN(C)[C@@H]5C2)OCO4)CCN1C` 18.4 µM (active)

Identify measured Potency corresponding to `Cn1cc(C2=C(c3cn(C)c4cc([N+](=O)[O-])ccc34)C(=O)NC2=O)c2ccccc21` 0.178 µM (active)

* * *

experiment: Cellular viability qHTS for adrenocortical cancer (ACC) cell line SW-13 (AID 1963989); details: SW-13 ACC cells viability, CellTiter-Glo, 48 h; also: potency is read from the fitted curve at half-maximal effect; nearly all actives have a fitted effect of over 65% in size
Inconclusive results are not listed. Calls of active or inactive are those of the source. Calls follow the shape of the dose curve; as a rule, active = well fitted cell-killing curve with a large enough effect; inconclusive = small, poorly fitted or top-dose-only effect; inactive = flat fitted curve, though single readings scatter.
Quantity measured: Potency

The cases that follow already have their Potency on record.
>>> value_measured("CCc1ccc(OCc2ccccc2C(=O)Nc2ccc3nc(C)cc(N)c3c2)cc1")
"5.01 µM (active)"
>>> value_measured("CN(C)Cc1c(C(=O)NCCOc2ccc(C(=O)NO)cc2)oc2ccccc12")
"1.26 µM (active)"
>>> value_measured("Cc1ccc(C(=O)Nc2ccc(CN3CCN(C)CC3)c(C(F)(F)F)c2)cc1C#Cc1cnc2cccnn12")
"3.16 µM (active)"
>>> value_measured("CC(C)n1c(/C=C/[C@H](O)C[C@H](O)CC(=O)O)c(-c2ccc(F)cc2)c2ccccc21")
"17.8 µM (active)"

Identify measured Potency corresponding to `O=C(Nc1nc2cccc(-c3ccc(CN4CCS(=O)(=O)CC4)cc3)n2n1)C1CC1` 25.1 µM (active)

* * *

test: Viability qHTS for spleen associated tyrosine kinase inhibitor (SYKi) drug resistant MV4-11 cells (AID 1963824); details: SYKi-resistant MV4-11 viability, CellTiter-Glo, 72 h; series mostly up to 45 µM; also: nearly all actives have a fitted effect of over 35% in size
Inconclusive results are not listed. Active and inactive are the calls of the source. The call rests on the fitted dose curve; in most records, active means well fitted cell-killing curve with a large enough effect; inconclusive means small, poorly fitted or top-dose-only effect, or effect the other way; inactive means no such curve, though single readings can be large or run the other way.
In this exercise, the only acceptable responses are 1.0 for active, 0.0 for inactive

>>> label("CC1=C2CC(=O)C(C)CC/C=C(\\C)CC2(O)OC1=O (stereo not drawn)")
0.0
>>> label("COc1ccc(CN2CCN(CCCSc3cc(C(C)(C)C)c(O)c(C(C)(C)C)c3)CC2)c(OC)c1OC")
1.0
>>> label("CC(=O)OC(C)C(C)(O)C(=O)O[C@@H]1CC[C@]2(C)CC(=O)C(=C(C)C)C[C@H]2[C@]1(C)OC(C)=O (stereo partly drawn)")
0.0
>>> label("CCC(=O)N1CCOc2c(cc(-c3ccc(OC)c(OC)c3)cc2OC[C@H]2CCCN(C)C2)C1")
1.0
>>> label("C=C1[C@H](OC(C)=O)[C@H]2[C@@H](OC(C)=O)[C@](C)(OC(C)=O)C[C@]2(OC(C)=O)C(=O)[C@H](C)/C=C/C(C)(C)C(=O)[C@H](OC(=O)C(C)C)[C@H]1OC(C)=O")
0.0
>>> label("O=C(O)C[C@H]1CCC(=O)[C@@H]1C/C=C\\CCO")
0.0

Answer briefly: the call reported for `C[C@@H]1COCCN1c1cc(=O)n2c(n1)N(Cc1cncc(Cl)c1)[C@H](C(F)(F)F)CC2` in this assay. 1.0

Answer briefly: the call reported for `C[C@@H]1O[C@@H](OC[C@H]2O[C@@H](OCc3ccccc3)[C@H](O)[C@@H](O)[C@@H]2O)[C@H](O)[C@H](O)[C@H]1O` in this assay. 0.0

* * *

assay: Viability qHTS for spleen associated tyrosine kinase inhibitor (SYKi) naive MV4-11 cells (AID 1963823); conditions: MV4-11 AML viability, CellTiter-Glo luminescence, 72 h; series mostly up to 45 µM; also: nearly all actives have a fitted effect of over 40% in size
Records with an inconclusive call do not appear. Activity calls are given as the source filed them. Calls come from the whole dose curve; as a rule, active = well fitted cell-killing curve with a large enough effect; inconclusive = small, poorly fitted or top-dose-only effect, or effect the other way; inactive = no such curve, though single readings can be large or run the other way.
In this exercise, the only acceptable responses are yes for active, no for inactive

>>> label("CC1=CC(=O)CC(C)(CO)C1(O)/C=C/C(C)O[C@@H]1O[C@H](CO)[C@@H](O)[C@H](O)[C@H]1O (stereo partly drawn)")
"no"
>>> label("C[C@@H]1C(=O)O[C@H](C)[C@H]1CC(=O)[C@](C)(O)[C@H]1CC[C@@]2(O)C3=CC(=O)[C@@H]4C[C@@H](O)[C@@H](O)C[C@]4(C)C3CC[C@]12C (stereo partly drawn)")
"no"
>>> label("CC(C)Cc1ccc([C@@H](C)C(=O)NS(C)(=O)=O)cc1")
"no"
>>> label("COc1c2c(c(C)c3c1C(=O)OC3)O[C@@]1(C)CC(O)C(C(C)(C)O)[C@](C)(CCC(=O)O)[C@H]1C2 (stereo partly drawn)")
"yes"
>>> label("COC(=O)N/N=C/c1c[n+]([O-])c2ccccc2[n+]1[O-]")
"no"
>>> label("CC(C(=O)O)c1cccc(C(=O)c2ccccc2)c1 (stereo not drawn)")
"no"
>>> label("CC(C)(C)NC(=O)[C@H]1CC[C@H]2[C@@H]3CC[C@H]4NC(=O)CC[C@]4(C)[C@H]3CC[C@]12C")
"no"

Below: the item to evaluate.
Answer briefly: the call reported for `CCN(C(=O)c1ccccc1OC)c1cc2c(cc1N1CCNC[C@H]1C)n(C)c(=O)n2C` in this assay. no

Ref: PubChem BioAssay (NCATS)
